target or test system: T1, 4H3855-bN
T1 chain: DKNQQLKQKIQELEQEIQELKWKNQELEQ
assay protocol: two-hybrid library CCNG1;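 further: natural log of median RNA to DNA barcode read ratio; higher means stronger binding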
assay readout: interaction score

binder	assay readout	result
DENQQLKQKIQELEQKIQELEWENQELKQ [4H1828-bN]	interaction score	0.0633

A: DKIAQLKQKIAELKQKIAELEWENAQLEQ [4H2915-bA]
B: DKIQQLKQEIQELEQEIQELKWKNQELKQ [4H2576-bN]
C: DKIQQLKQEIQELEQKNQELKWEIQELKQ [4H2618-bN]
Query: Task for the reader: rank each entry by its interaction score, from the minimum upward. Give your ranking as a list of the labels in the requested order.
Response: C, A, B
(C: -0.781, A: 0.188, B: 1.04)
